- System: Klebsiella pneumoniae
- REPORTED_CONDITIONS: Concentration 32 ug.mL-1;; ASSAY_TEST Inhibition of Bacterial Growth; detection method Absorption (OD600); MEDIA CAMHB; plate type 384well; NBS; CORNING #3640; time 18 hr
- Description: Antibacterial activity against Klebsiella pneumoniae MDR ATCC 70063 (CO-ADD:GN_003); MIC in CAMBH media using NBS plates, by OD(600)
Entries with a potency or affinity are not part of this list.
READOUT: Inhibition (%)
Give bare numbers, in %.

Sample records with Inhibition:
>>> measured("Cc1ccc(NC(=O)Cn2nc3c(SCc4ccc(Cl)cc4)nccn3c2=O)c(C)c1")
13.7
>>> measured("O=C(CSc1nnc2c(=O)n(-c3ccccc3)ccn12)Nc1cccc(Cl)c1")
1.21
>>> measured("CCc1ccccc1Sc1nccn2c(=O)n(CC(=O)NCc3ccc(OC)cc3)nc12")
1.83
>>> measured("COc1ccc(OC)c(NC(=O)Cn2nc3c(Sc4ccccc4)nc4ccccc4n3c2=O)c1")
8.31
>>> measured("CCOc1ccc(NC(=O)Cn2nc3c4c5c(sc4ncn3c2=O)CCCC5)cc1")
5.11

List the reported Inhibition of each compound below.
1. Cc1cc(C)cc(NC(=O)Cn2nc3c4cc(-c5ccc(Cl)cc5)nn4ccn3c2=O)c1
2. COc1cccc(CNC(=O)CSc2nnc3c(=O)n(-c4cccc(OC)c4)ccn23)c1
3. COc1ccc(Cl)cc1NC(=O)Cn1nc2c(Sc3ccc(C)cc3C)nccn2c1=O
4. COC(=O)c1ccc(NC(=O)CSc2nnc3ccc(C(=O)Nc4cccc(F)c4)cn23)cc1
5. CCOc1ccc(-n2ccn3c(SCC(=O)Nc4ccc(Cl)cc4)nnc3c2=O)cc1
6. COc1ccc(NC(=O)Cn2nc3c4cc(-c5ccc(C)c(C)c5)nn4ccn3c2=O)cc1Cl
7. CCc1ccc(NC(=O)Cn2nc3cc(C)nc(Nc4ccc(C)c(F)c4)n3c2=O)cc1
8. COc1ccc(-c2nc(CSc3nc4ccccc4n4c(C(C)C)nnc34)c(C)o2)cc1

7.37
10.15
5.33
4.63
5.78
8.4
10.82
4.67

List the reported Inhibition of each compound below.
1. O=C(Cn1nc2c(N3CCOCC3)nccn2c1=O)NCc1cccc(C(F)(F)F)c1
2. COc1ccc(-c2cc3c4nnc(SCC(=O)Nc5cc(F)ccc5C)n4ccn3n2)cc1
3. Cc1ccc(Sc2nccn3c(=O)n(CC(=O)Nc4ccc(C)cc4Br)nc23)c(C)c1
4. COc1ccc(CNC(=O)CSc2nnc3c4cc(-c5ccccc5)nn4ccn23)cc1

8.39
-19.37
10.73
15.76
